studyTarget: I1234del-CFTR (Homo sapiens, UniProt P13569, DEL1234-1239)
procedureDetails: Short-circuit current in FRT cells expressing I1234del-CFTR
Type: cell-based
Design: introduced into full-length CFTR cDNA in the vector pcDNA3.1/Zeo (+); expressed in transfected cells; host or cells: FRT cells, pIRESpuro3 vector, puromycin-selected clonal lines
conditionInfo: following 20 μM forskolin and 5 μM VX-770; cells corrected with 3 μM VX-661
pEC50: −log10 of the molar value.
quantityName: pEC50

> print(dat)
                                   compound                               studytarget  measurement
1  COc1ccc2[nH]c3c(c2c1)CCNC31CCN(Cc2cc(F)c(F)cc2F)CC1 [Compound 2i]  I1234del-CFTR (Homo sapiens, UniProt P13569, DEL1234-1239)         6.15

###

Recorded measurements of pEC50, one per entry
studyTarget: W1282X-CFTR (Homo sapiens)
Construct: CFTR1281 (the truncation product generated by W1282X-CFTR); expressed in transfected cells
procedureDetails: Structure-activity testing of co-potentiator analogs in FRT cells expressing W1282X-CFTR
Type: cell-based
conditionInfo: Table 2; FRT cells expressing W1282X-CFTR; read-out: EC50
pEC50: −log10 of the molar value.
quantityName: pEC50

> print(dat)
                                   compound  measurement
1  COc1ccc2cc3c(N)nn(C(=O)c4cc(OC)c(OC)c(OC)c4)c3nc2c1 [Compound D012]       < 4.52
2  COc1ccc2cc3c(N)nn(C(=O)c4ccc([N+](=O)[O-])c(C)c4)c3nc2c1 [Compound D025]       < 4.52
3  COc1ccc2cc3c(N)nn(C(=O)c4ccc(F)cc4Cl)c3nc2c1 [Compound D018]         5.62
4  COc1ccc2cc3c(N)nn(C(=O)c4ccncc4)c3nc2c1 [Compound D003]       < 4.52

###

studyTarget: N1303K-CFTR (Homo sapiens, UniProt P13569, N1303K)
Sequence (P13569 whole entry N1303K): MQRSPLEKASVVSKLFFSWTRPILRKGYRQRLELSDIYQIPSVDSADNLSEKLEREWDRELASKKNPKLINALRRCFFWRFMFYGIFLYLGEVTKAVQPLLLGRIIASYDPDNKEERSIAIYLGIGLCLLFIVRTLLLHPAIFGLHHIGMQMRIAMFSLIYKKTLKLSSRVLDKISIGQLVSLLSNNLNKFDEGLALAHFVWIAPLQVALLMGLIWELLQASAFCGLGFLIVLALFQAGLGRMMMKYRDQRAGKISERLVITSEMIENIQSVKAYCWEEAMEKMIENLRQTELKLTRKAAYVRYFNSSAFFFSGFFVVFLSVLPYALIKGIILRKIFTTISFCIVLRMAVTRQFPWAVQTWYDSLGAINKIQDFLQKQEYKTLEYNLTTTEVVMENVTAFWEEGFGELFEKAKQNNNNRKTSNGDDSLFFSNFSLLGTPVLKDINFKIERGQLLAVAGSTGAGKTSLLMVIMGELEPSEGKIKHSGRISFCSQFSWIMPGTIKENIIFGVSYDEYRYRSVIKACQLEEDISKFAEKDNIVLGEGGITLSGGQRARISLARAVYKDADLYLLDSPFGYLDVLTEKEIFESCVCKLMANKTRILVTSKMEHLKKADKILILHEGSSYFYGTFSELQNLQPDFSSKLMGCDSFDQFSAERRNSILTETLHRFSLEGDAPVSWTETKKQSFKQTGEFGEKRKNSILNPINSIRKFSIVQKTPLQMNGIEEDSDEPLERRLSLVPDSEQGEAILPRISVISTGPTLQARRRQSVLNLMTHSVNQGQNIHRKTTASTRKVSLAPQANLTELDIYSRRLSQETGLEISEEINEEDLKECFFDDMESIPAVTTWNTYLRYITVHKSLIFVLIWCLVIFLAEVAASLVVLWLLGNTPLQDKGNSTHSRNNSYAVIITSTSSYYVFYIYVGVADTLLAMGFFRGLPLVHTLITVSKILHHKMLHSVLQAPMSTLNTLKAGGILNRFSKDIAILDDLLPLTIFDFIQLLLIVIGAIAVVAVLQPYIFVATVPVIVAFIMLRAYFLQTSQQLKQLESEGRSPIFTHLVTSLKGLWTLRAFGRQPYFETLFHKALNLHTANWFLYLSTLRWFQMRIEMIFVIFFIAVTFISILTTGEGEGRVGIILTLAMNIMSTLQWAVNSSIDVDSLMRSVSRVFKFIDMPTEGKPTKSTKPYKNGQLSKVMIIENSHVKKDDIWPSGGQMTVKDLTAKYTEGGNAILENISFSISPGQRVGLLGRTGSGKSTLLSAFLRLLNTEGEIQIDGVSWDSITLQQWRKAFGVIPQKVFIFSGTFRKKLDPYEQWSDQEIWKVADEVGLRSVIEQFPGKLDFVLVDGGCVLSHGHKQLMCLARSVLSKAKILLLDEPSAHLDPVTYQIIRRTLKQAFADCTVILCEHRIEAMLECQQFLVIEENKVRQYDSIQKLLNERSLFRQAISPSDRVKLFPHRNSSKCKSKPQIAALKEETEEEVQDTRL
procedureDetails: Short-circuit current in FRT cells expressing N1303K-CFTR
Assay type: cell-based
Parameters: expressed in transfected cells; host or cells: Fischer rat thyroid (FRT) cells
conditionInfo: forskolin and 20 μM GLPG1837 instead of VX-770; cells corrected with 3 μM VX-661
quantityName: EC50

> print(dat)
                          structurenotation  measurement
1  COc1ccc2[nH]c3c(c2c1)CCNC31CCN(Cc2cc(F)c(F)cc2F)CC1       800 nM

###

studyTarget: W1282X-CFTR (Homo sapiens)
Construct: CFTR1281 (the truncation product generated by W1282X-CFTR); expressed in transfected cells
procedureDetails: Structure-activity testing of co-potentiator analogs in FRT cells expressing W1282X-CFTR
Assay type: cell-based
conditionInfo: Table 2; 100% Vmax corresponds to 20 μM ASP-11
quantityName: Relative Vmax (%)*

> print(dat)
                                   compound        quantityname  measurement
1  COc1ccc2cc3c(N)nn(C(=O)c4ccc([N+](=O)[O-])c(C)c4)c3nc2c1 [Compound D025]  Relative Vmax (%)*            3
2  COc1ccc2cc3c(N)nn(C(=O)Cc4ccc([N+](=O)[O-])cc4)c3nc2c1 [Compound D035]  Relative Vmax (%)*            1
3  COc1ccc2cc3c(N)nn(C(=O)c4ccncc4)c3nc2c1 [Compound D003]  Relative Vmax (%)*            1
4  COc1ccc2cc3c(N)nn(C(=O)c4ccc(F)cc4Cl)c3nc2c1 [Compound D018]  Relative Vmax (%)*           92
5  COc1ccc2nc3c(cc2c1)c(N)nn3C(=O)c1ccc([N+](=O)[O-])cc1Cl [Compound D138]  Relative Vmax (%)*           21

###

studyTarget: N1303K-CFTR (Homo sapiens, UniProt P13569, N1303K)
procedureDetails: Short-circuit current in FRT cells expressing N1303K-CFTR
Assay type: cell-based
Design: expressed in transfected cells; host or cells: Fischer rat thyroid (FRT) cells
conditionInfo: Table 1B; cell line not given
Mark Y only when EC50 stays strictly below 3 µM. Values equal to the cut-off are N.

> print(dat)
                          structurenotation  classification
1  Fc1ccc(CN2CCC3(CC2)NCCc2c3[nH]c3ccc(Cl)cc23)c(F)c1               Y
2  COc1ccc2[nH]c3c(c2c1)CCNC31CCN(Cc2ccc(F)c(Cl)c2F)CC1               N
3  COc1ccc2[nH]c3c(c2c1)CCNC31CCN(Cc2cc(F)c(F)c(F)c2)CC1               Y
4  COc1ccc2c3c([nH]c2c1)C1(CCN(Cc2ccc(F)cc2F)CC1)NCC3               Y
5  COc1ccc2[nH]c3c(c2c1)CCNC31CCN(Cc2ccc(F)c(F)c2F)CC1               N
6  COc1ccc2[nH]c3c(c2c1)CCNC31CCN(Cc2c(F)c(F)c(F)c(F)c2F)CC1               Y

###

studyTarget: W1282X-CFTR (Homo sapiens, UniProt P13569)
Construct: CFTR1281 (the truncation product generated by W1282X-CFTR); expressed in transfected cells
Sequence (P13569 1-1281 limits assumed): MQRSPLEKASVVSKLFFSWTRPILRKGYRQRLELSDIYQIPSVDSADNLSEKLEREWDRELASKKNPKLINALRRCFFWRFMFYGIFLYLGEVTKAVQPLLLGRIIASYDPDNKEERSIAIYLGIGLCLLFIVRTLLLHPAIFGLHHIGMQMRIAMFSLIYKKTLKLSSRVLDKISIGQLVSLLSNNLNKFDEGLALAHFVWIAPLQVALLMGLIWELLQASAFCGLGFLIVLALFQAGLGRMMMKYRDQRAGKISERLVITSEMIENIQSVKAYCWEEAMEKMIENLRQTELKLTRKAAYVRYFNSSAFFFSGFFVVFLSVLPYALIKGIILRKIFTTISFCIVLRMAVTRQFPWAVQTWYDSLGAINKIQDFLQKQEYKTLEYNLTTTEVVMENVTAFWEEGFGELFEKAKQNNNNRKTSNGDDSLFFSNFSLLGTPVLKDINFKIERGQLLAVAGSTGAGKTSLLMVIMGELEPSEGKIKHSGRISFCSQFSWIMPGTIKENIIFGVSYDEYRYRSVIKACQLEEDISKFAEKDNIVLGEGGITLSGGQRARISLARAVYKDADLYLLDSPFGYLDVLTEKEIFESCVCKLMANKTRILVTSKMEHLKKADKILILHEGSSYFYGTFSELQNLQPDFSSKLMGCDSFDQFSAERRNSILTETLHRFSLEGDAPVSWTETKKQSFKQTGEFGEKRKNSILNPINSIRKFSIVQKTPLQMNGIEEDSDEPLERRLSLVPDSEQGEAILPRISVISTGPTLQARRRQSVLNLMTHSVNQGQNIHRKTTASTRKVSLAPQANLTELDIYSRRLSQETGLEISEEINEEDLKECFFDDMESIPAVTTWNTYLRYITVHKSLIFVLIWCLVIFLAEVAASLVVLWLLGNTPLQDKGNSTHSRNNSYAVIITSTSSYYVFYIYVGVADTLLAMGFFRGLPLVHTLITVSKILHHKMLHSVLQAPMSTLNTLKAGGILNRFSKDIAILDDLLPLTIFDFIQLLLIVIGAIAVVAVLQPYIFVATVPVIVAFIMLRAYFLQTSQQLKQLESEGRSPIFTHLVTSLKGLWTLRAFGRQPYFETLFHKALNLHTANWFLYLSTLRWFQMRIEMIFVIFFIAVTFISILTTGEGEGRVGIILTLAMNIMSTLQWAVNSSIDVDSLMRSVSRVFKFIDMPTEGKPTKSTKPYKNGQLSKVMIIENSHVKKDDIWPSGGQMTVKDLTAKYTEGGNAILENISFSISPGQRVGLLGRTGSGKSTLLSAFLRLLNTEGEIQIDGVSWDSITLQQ
procedureDetails: Structure-activity testing of co-potentiator analogs in FRT cells expressing W1282X-CFTR
Assay type: cell-based
conditionInfo: Table 2; FRT cells expressing W1282X-CFTR; read-out: EC50
// values below are reported EC50
quantityName: EC50

> print(dat)
                                   compound  measurement
1  COc1ccc2cc3c(N)nn(C(=O)Cc4ccc([N+](=O)[O-])cc4)c3nc2c1 [Compound D086]      > 30 µM
2  COc1ccc2cc3c(N)nn(C(=O)c4ccc(Cl)c([N+](=O)[O-])c4)c3nc2c1      > 30 µM
3  COc1ccc2cc3c(N)nn(C(=O)Cc4ccc([N+](=O)[O-])cc4)c3nc2c1 [Compound D035]      > 30 µM

Data credit: patent US20220323425A1
